Tested on: Staphylococcus aureus
Experiment: Bactericidal activity against methicillin-susceptible Staphylococcus aureus after 24 hrs by plate counting method
Assay type: functional
Threshold 2 µg/mL: MBC50 strictly smaller gives Met, otherwise Not met.

{"MOLECULE": "Cc1ccc(C(C)C)c(O)c1 [THYMOL]", "LABEL": "Not met"}
{"MOLECULE": "C[C@H]1COc2c(N3CCN(C)CC3)c(F)cc3c(=O)c(C(=O)O)cn1c23.C[C@H]1COc2c(N3CCN(C)CC3)c(F)cc3c(=O)c(C(=O)O)cn1c23.O [LEVOFLOXACIN]", "LABEL": "Met"}
{"MOLECULE": "CN(C)[C@@H]1C(O)=C(C(N)=O)C(=O)[C@@]2(O)C(O)=C3C(=O)c4c(O)cccc4[C@@](C)(O)[C@H]3C[C@@H]12 [TETRACYCLINE]", "LABEL": "Not met"}
{"MOLECULE": "CN[C@H](CC(C)C)C(=O)N[C@H]1C(=O)N[C@@H](CC(N)=O)C(=O)N[C@H]2C(=O)N[C@H]3C(=O)N[C@H](C(=O)N[C@H](C(=O)O)c4cc(O)cc(O)c4-c4cc3ccc4O)[C@H](O)c3ccc(c(Cl)c3)Oc3cc2cc(c3O[C@@H]2O[C@H](CO)[C@@H](O)[C@H](O)[C@H]2O[C@H]2C[C@](C)(N)[C@H](O)[C@H](C)O2)Oc2ccc(cc2Cl)[C@H]1O [VANCOMYCIN]", "LABEL": "Met"}
{"MOLECULE": "CC(=O)NC[C@H]1CN(c2ccc(N3CCOCC3)c(F)c2)C(=O)O1 [LINEZOLID]", "LABEL": "Not met"}

Please let me know if Cc1onc(-c2ccccc2)c1C(=O)N[C@@H]1C(=O)N2[C@@H]1SC(C)(C)[C@@H]2C(=O)O [OXACILLIN] shows MBC50 below 2 µg/mL. Not met

Consider the molecule CC[C@H]1OC(=O)[C@H](C)[C@@H](O[C@H]2C[C@@](C)(OC)[C@@H](O)[C@H](C)O2)[C@H](C)[C@@H](O[C@@H]2O[C@H](C)C[C@H](N(C)C)[C@H]2O)[C@](C)(O)C[C@@H](C)C(=O)[C@H](C)[C@@H](O)[C@]1(C)O [ERYTHROMYCIN] . Is its MBC50 strictly less than 2 µg/mL? Not met

Item CC1(C)S[C@@H]2[C@H](NC(=O)[C@H](N)c3ccccc3)C(=O)N2[C@H]1C(=O)O [AMPICILLIN] : MBC50 beneath 2 µg/mL, strictly? Not met

====

Record form. Attribute: MBC90. Fill in for each entry.
Test system: Staphylococcus simulans
Assay: Bactericidal activity against methicillin-susceptible coagulase-negative Staphylococcus simulans after 24 hrs by plate counting method
Assay type: functional
Numbers only, in µg/mL.

Field: example entries. Status: answers known.
{"MOLECULE_SMILES": "CN[C@H](CC(C)C)C(=O)N[C@H]1C(=O)N[C@@H](CC(N)=O)C(=O)N[C@H]2C(=O)N[C@H]3C(=O)N[C@H](C(=O)N[C@H](C(=O)O)c4cc(O)cc(O)c4-c4cc3ccc4O)[C@H](O)c3ccc(c(Cl)c3)Oc3cc2cc(c3O[C@@H]2O[C@H](CO)[C@@H](O)[C@H](O)[C@H]2O[C@H]2C[C@](C)(N)[C@H](O)[C@H](C)O2)Oc2ccc(cc2Cl)[C@H]1O", "MBC90 (µg/mL)": 4}
{"MOLECULE_SMILES": "Cc1ccc(C(C)C)c(O)c1", "MBC90 (µg/mL)": 512}

Batch lookup, MBC90 per entry.
1. CN(C)[C@@H]1C(O)=C(C(N)=O)C(=O)[C@@]2(O)C(O)=C3C(=O)c4c(O)cccc4[C@@](C)(O)[C@H]3C[C@@H]12
2. CC(=O)NC[C@H]1CN(c2ccc(N3CCOCC3)c(F)c2)C(=O)O1
3. CC1(C)S[C@@H]2[C@H](NC(=O)[C@H](N)c3ccccc3)C(=O)N2[C@H]1C(=O)O
4. C[C@H]1COc2c(N3CCN(C)CC3)c(F)cc3c(=O)c(C(=O)O)cn1c23.C[C@H]1COc2c(N3CCN(C)CC3)c(F)cc3c(=O)c(C(=O)O)cn1c23.O
5. Cc1onc(-c2ccccc2)c1C(=O)N[C@@H]1C(=O)N2[C@@H]1SC(C)(C)[C@@H]2C(=O)O
6. COc1cc(O)c(C(=O)[C@@H]2[C@H](CC=C(C)C)C(C)=CC[C@H]2c2ccccc2)c(O)c1

1. 128
2. 4
3. 128
4. 4
5. 8
6. 4

====

Test system: Staphylococcus hominis
Assay: Antimicrobial activity against methicillin-susceptible coagulase-negative Staphylococcus hominis after 24 hrs by broth microdilution method
Assay type: functional
EXPERIMENTAL_ENDPOINT: MIC (µg/mL)
One number for each entry, in µg/mL.

Consider the following illustrative entries.
{"MOLECULE_SMILES": "CN(C)[C@@H]1C(O)=C(C(N)=O)C(=O)[C@@]2(O)C(O)=C3C(=O)c4c(O)cccc4[C@@](C)(O)[C@H]3C[C@@H]12", "SYSTEM_UNDER_TEST": "Staphylococcus hominis", "UNIT_SYMBOL": "µg/mL", "OBS_VALUE": 0.5}
{"MOLECULE_SMILES": "CC[C@H]1OC(=O)[C@H](C)[C@@H](O[C@H]2C[C@@](C)(OC)[C@@H](O)[C@H](C)O2)[C@H](C)[C@@H](O[C@@H]2O[C@H](C)C[C@H](N(C)C)[C@H]2O)[C@](C)(O)C[C@@H](C)C(=O)[C@H](C)[C@@H](O)[C@]1(C)O", "SYSTEM_UNDER_TEST": "Staphylococcus hominis", "UNIT_SYMBOL": "µg/mL", "OBS_VALUE": 0.5}
{"MOLECULE_SMILES": "C[C@H]1COc2c(N3CCN(C)CC3)c(F)cc3c(=O)c(C(=O)O)cn1c23.C[C@H]1COc2c(N3CCN(C)CC3)c(F)cc3c(=O)c(C(=O)O)cn1c23.O", "SYSTEM_UNDER_TEST": "Staphylococcus hominis", "UNIT_SYMBOL": "µg/mL", "OBS_VALUE": 0.25}

Next compound, please.
Please report MIC with Staphylococcus hominis for item `Cc1onc(-c2ccccc2)c1C(=O)N[C@@H]1C(=O)N2[C@@H]1SC(C)(C)[C@@H]2C(=O)O` . 0.125

====

Test system: Mammaliicoccus sciuri
Assay: Antimicrobial activity against methicillin-resistant coagulase-negative Staphylococcus sciuri after 24 hrs by broth microdilution method
Type: functional
Would you kindly list MIC50 for each of these molecules?
Answers are plain numbers, in µg/mL.

Below are worked cases with known answers.
{"MOLECULE_SMILES": "CC(=O)NC[C@H]1CN(c2ccc(N3CCOCC3)c(F)c2)C(=O)O1", "UNIT_SYMBOL": "µg/mL", "MIC50": 0.25}
{"MOLECULE_SMILES": "Cc1onc(-c2ccccc2)c1C(=O)N[C@@H]1C(=O)N2[C@@H]1SC(C)(C)[C@@H]2C(=O)O", "UNIT_SYMBOL": "µg/mL", "MIC50": 64}
{"MOLECULE_SMILES": "Cc1ccc(C(C)C)c(O)c1", "UNIT_SYMBOL": "µg/mL", "MIC50": 64}
{"MOLECULE_SMILES": "COc1cc(O)c(C(=O)[C@@H]2[C@H](CC=C(C)C)C(C)=CC[C@H]2c2ccccc2)c(O)c1", "UNIT_SYMBOL": "µg/mL", "MIC50": 0.25}
{"MOLECULE_SMILES": "CC1(C)S[C@@H]2[C@H](NC(=O)[C@H](N)c3ccccc3)C(=O)N2[C@H]1C(=O)O", "UNIT_SYMBOL": "µg/mL", "MIC50": 16}
{"MOLECULE_SMILES": "CN[C@H](CC(C)C)C(=O)N[C@H]1C(=O)N[C@@H](CC(N)=O)C(=O)N[C@H]2C(=O)N[C@H]3C(=O)N[C@H](C(=O)N[C@H](C(=O)O)c4cc(O)cc(O)c4-c4cc3ccc4O)[C@H](O)c3ccc(c(Cl)c3)Oc3cc2cc(c3O[C@@H]2O[C@H](CO)[C@@H](O)[C@H](O)[C@H]2O[C@H]2C[C@](C)(N)[C@H](O)[C@H](C)O2)Oc2ccc(cc2Cl)[C@H]1O", "UNIT_SYMBOL": "µg/mL", "MIC50": 0.125}

For each of the items listed, what is its MIC50?
1. C[C@H]1COc2c(N3CCN(C)CC3)c(F)cc3c(=O)c(C(=O)O)cn1c23.C[C@H]1COc2c(N3CCN(C)CC3)c(F)cc3c(=O)c(C(=O)O)cn1c23.O
2. CN(C)[C@@H]1C(O)=C(C(N)=O)C(=O)[C@@]2(O)C(O)=C3C(=O)c4c(O)cccc4[C@@](C)(O)[C@H]3C[C@@H]12
3. CC[C@H]1OC(=O)[C@H](C)[C@@H](O[C@H]2C[C@@](C)(OC)[C@@H](O)[C@H](C)O2)[C@H](C)[C@@H](O[C@@H]2O[C@H](C)C[C@H](N(C)C)[C@H]2O)[C@](C)(O)C[C@@H](C)C(=O)[C@H](C)[C@@H](O)[C@]1(C)O

0.25
1
16
